The measurements presented in this section are drawn from patent US6737383B1.

# Tested on: morningglory
# assay.overview: Test B pre/postemergence morningglory
# Type: in vivo, Ipomoea hederacea
# recorded.conditions: Preemergence, Rate 500 g/ha; scale of 0 to 10 where 0 is no effect and 10 is complete control
measurement.kind: Morningglory plant response rating
Please reply with the number alone, leaving off any unit.

# compound, system.name, obs.value
rows = [
    ("CC(C)N(C(=O)n1oc(=O)n(C2(C)CC2)c1=O)c1ccccc1 [Compound 360]", "morningglory", 10),
    ("CC(C)Cn1c(=O)on(C(=O)N(c2ccc(F)cc2F)C(C)C)c1=O [Compound 394]", "morningglory", 2),
    ("CCOCn1c(=O)on(C(=O)N(c2ccc(F)cc2F)C(C)C)c1=O [Compound 504]", "morningglory", 4),
    ("CC(C)N(C(=O)n1oc(=O)n(C(C)C(=O)c2ccccc2)c1=O)c1ccc(Cl)cc1 (centres unmarked) [Compound 541]", "morningglory", 0),
]

# lookup: CC(C)N(C(=O)n1oc(=O)n(CC2CCCC2)c1=O)c1ccc(F)cc1 [Compound 322] on morningglory, Morningglory plant response rating = 0

# lookup: CC(C)N(C(=O)n1oc(=O)[nH]c1=O)c1ccc(F)cc1F [Compound 391] on morningglory, Morningglory plant response rating = 0

# lookup: CC(C)=CCn1c(=O)on(C(=O)N(c2ccccc2)C(C)C)c1=O [Compound 574] on morningglory, Morningglory plant response rating = 0

# lookup: Cc1ccccc1-n1c(=O)on(C(=O)N(c2ccc3ccccc3c2)C(C)C)c1=O [Compound 306] on morningglory, Morningglory plant response rating = 0

====

# System: bedstraw
# assay.overview: Test B pre/postemergence bedstraw
# Type: in vivo, Galium aparine
# recorded.conditions: Preemergence, Rate 62 g/ha; scale of 0 to 10 where 0 is no effect and 10 is complete control
Reported Bedstraw plant response rating values for a set of compounds
Please reply with the number alone, leaving off any unit.

Here is how some compounds turned out for Bedstraw plant response rating.
# compound, obs.value
records = [
    ("CCn1ncc(Cn2c(=O)on(C(=O)N(c3ccc(Cl)cc3)C(C)C)c2=O)c1Cl", 0),
    ("CC(C)N(C(=O)n1oc(=O)n(C2CCCC2)c1=O)c1ccc(Cl)cc1", 0),
    ("CCC(C)N(C(=O)n1oc(=O)n(-c2ccccc2C)c1=O)c1ccc(F)cc1 (stereo not shown)", 0),
]

Now turn to the next compound.
Reported Bedstraw plant response rating for Cc1ccccc1-n1c(=O)on(C(=O)N(c2ccccc2F)C(C)C)c1=O was 0

====

Reported Plant response rating, Sugarbeets values for a set of compounds
# Test system: sugar beet
# assay.overview: Test B pre/postemergence sugar beet
# Assay type: in vivo, Beta vulgaris
# recorded.conditions: Preemergence, Rate 125 g/ha; scale of 0 to 10 where 0 is no effect and 10 is complete control

# compound, obs.value
records = [
    ("CC(C)Cn1c(=O)on(C(=O)N(c2ccc(F)cc2F)C(C)C)c1=O [Compound 394]", 3),
    ("CC(C)N(C(=O)n1oc(=O)n(C(C)C(=O)N2CCOCC2)c1=O)c1ccc(Cl)cc1 (stereo not drawn) [Compound 703]", 0),
    ("COC(C)n1c(=O)on(C(=O)N(c2ccc(F)cc2)C(C)C)c1=O (stereo not drawn) [Compound 439]", 0),
    ("CC(C)N(C(=O)n1oc(=O)n(C(C)Cl)c1=O)c1ccc(F)cc1 (stereo not drawn) [Compound 393]", 2),
    ("CC(C)N(C(=O)n1oc(=O)n(CC#N)c1=O)c1ccc(Cl)cc1 [Compound 476]", 0),
    ("CC(C)N(C(=O)n1oc(=O)[nH]c1=O)c1ccc(F)cc1F [Compound 391]", 0),
]

Reported Plant response rating, Sugarbeets for CC(C)N(C(=O)n1oc(=O)n(CCCC#N)c1=O)c1ccccc1 [Compound 674] was 5

Reported Plant response rating, Sugarbeets for CC(C)N(C(=O)n1oc(=O)n(CCl)c1=O)c1ccc(F)cc1F [Compound 437] was 0

Reported Plant response rating, Sugarbeets for CC(C)N(C(=O)n1oc(=O)n(CCC#N)c1=O)c1ccc(F)cc1F [Compound 433] was 2
